Give measured pEC50 for each item. Keep answers brief.
# System: Human immunodeficiency virus 1
# Run Description: Antiviral activity against HIV1 harboring RT Y181C mutant infected in human MT4 cells assessed as inhibition of virus-induced cytopathic effect incubated for 5 days by MTT assay
# Assay type: functional, organism-based
# Assay Context: Human immunodeficiency virus 1, MT4, 120 h
pEC50: −log10 of the molar value.

Lookup: Return reported pEC50. Input compound: "Cc1cc(C#CC=C2CCN(S(=O)(=O)C3CC3)CC2)cc(C)c1Oc1ccnc(Nc2ccc(C#N)cc2)n1"
Found: < 5.33

Lookup: Identify measured pEC50 associated with "CCOC(=O)CN1CCC(=CC#Cc2cc(C)c(Oc3ccnc(Nc4ccc(C#N)cc4)n3)c(C)c2)CC1"
Found: < 3.70

Lookup: For the compound "COC(=O)c1ccc(CN2CCC(=CC#Cc3cc(C)c(Oc4ccnc(Nc5ccc(C#N)cc5)n4)c(C)c3)CC2)cc1" , give its reported pEC50.
Found: < 4.47

Lookup: Note pEC50 for the compound shown: "CCC(=O)N1CCC(=CC#Cc2cc(C)c(Oc3ccnc(Nc4ccc(C#N)cc4)n3)c(C)c2)CC1"
Found: 6.11

Lookup: Provide one value: measured pEC50 of "Cc1cc(C#CC=C2CCN(S(C)(=O)=O)CC2)cc(C)c1Oc1ccnc(Nc2ccc(C#N)cc2)n1"
Found: 6.04

Lookup: Return reported pEC50. Input compound: "Nc1ccn([C@H]2CS[C@@H](CO)O2)c(=O)n1"
Found: 5.47

Lookup: Item "Cc1cc(C#CC=C2CCN(S(=O)(=O)C(C)C)CC2)cc(C)c1Oc1ccnc(Nc2ccc(C#N)cc2)n1" : provide pEC50
Found: < 5.34

Lookup: Read off the recorded pEC50 for "Cc1cc(C#CC=C2CCN(S(=O)(=O)N(C)C)CC2)cc(C)c1Oc1ccnc(Nc2ccc(C#N)cc2)n1"
Found: < 5.32

* * *

# System: Human immunodeficiency virus 1
# Run Description: Antiviral activity against HIV1 harboring RT Y181C mutant infected in human MT4 cells assessed as inhibition of virus-induced cytopathic effect incubated for 5 days by MTT assay
# Type: functional, organism-based
# Assay Context: Human immunodeficiency virus 1, MT4, 120 h
Experimental Endpoint: EC50 (µM)
State the answer as a number, implicitly in µM.

Lookup: Fill: EC50 (Human immunodeficiency virus 1) for this molecule "Cc1cn([C@H]2C[C@H](N=[N+]=[N-])[C@@H](CO)O2)c(=O)[nH]c1=O"
Found: 0.015

Lookup: Output reported EC50 of the molecule "Cc1cc(C#CC=C2CCN(Cc3cccc([N+](=O)[O-])c3)CC2)cc(C)c1Oc1ccnc(Nc2ccc(C#N)cc2)n1" on Human immunodeficiency virus 1.
Found: 5.55

Lookup: For Human immunodeficiency virus 1, give the measured EC50 of the entry "Cc1cc(C#CC=C2CCN(C(=O)N(C)C)CC2)cc(C)c1Oc1ccnc(Nc2ccc(C#N)cc2)n1"
Found: 0.799

* * *

# Run Description: Cytotoxicity against mock-infected human MT4 cells incubated for 5 days by MTT assay
# Type: cell-based
# Assay Context: time 5 day
Threshold 5 µM: CC50 at 120 h strictly smaller gives yes, otherwise no.

Lookup: Please determine if "Cc1cc(C#CC=C2CCN(S(=O)(=O)C(C)C)CC2)cc(C)c1Oc1ccnc(Nc2ccc(C#N)cc2)n1" is below 5 µM in terms of CC50 at 120 h.
Found: yes

Lookup: Determine if "Cc1cc(C#CC=C2CCN(Cc3cccc([N+](=O)[O-])c3)CC2)cc(C)c1Oc1ccnc(Nc2ccc(C#N)cc2)n1" shows CC50 at 120 h strictly lower than 5 µM.
Found: no

Lookup: CC50 at 120 h under 5 µM? Item: "Cc1cc(C#CC=C2CCN(S(=O)(=O)N(C)C)CC2)cc(C)c1Oc1ccnc(Nc2ccc(C#N)cc2)n1"
Found: yes

Lookup: Could you please tell me whether CC50 at 120 h recorded for "C=CC(=O)N1CCC(=CC#Cc2cc(C)c(Oc3ccnc(Nc4ccc(C#N)cc4)n3)c(C)c2)CC1" is less than 5 µM?
Found: yes

Lookup: Take the molecule "Cc1cc(C#CC=C2CCN(C(=O)N(C)C)CC2)cc(C)c1Oc1ccnc(Nc2ccc(C#N)cc2)n1" and say whether its CC50 at 120 h is less than 5 µM.
Found: yes

Lookup: hey, is CC50 at 120 h for "Cc1cc(C#CC=C2CCN(Cc3ccccn3)CC2)cc(C)c1Oc1ccnc(Nc2ccc(C#N)cc2)n1" lower than 5 µM or not?
Found: no

Lookup: Below 5 µM on CC50 at 120 h? Entry O=C1Nc2ccc(Cl)cc2[C@@](C#CC2CC2)(C(F)(F)F)O1 [EFAVIRENZ]
Found: no

Lookup: Just wondering, is CC50 at 120 h of Cc1cn([C@H]2C[C@H](N=[N+]=[N-])[C@@H](CO)O2)c(=O)[nH]c1=O [ZIDOVUDINE] below 5 µM?
Found: no

Lookup: In plain terms, does Cc1ccnc2c1NC(=O)c1cccnc1N2C1CC1 [NEVIRAPINE] come in under 5 µM for CC50 at 120 h?
Found: no

Lookup: Hello, is CC50 at 120 h of the following molecule strictly smaller than 5 µM? "Cc1cc(C#CC=C2CCN(Cc3ccccc3C#N)CC2)cc(C)c1Oc1ccnc(Nc2ccc(C#N)cc2)n1"
Found: no

Lookup: Strictly below 5 µM in CC50 at 120 h? "Cc1cc(C#CC=C2CCNCC2)cc(C)c1Oc1ccnc(Nc2ccc(C#N)cc2)n1"
Found: yes
